The origin of these recorded values is PubChem BioAssay (NCI).

- Test system: K-562 leukemia
- Assay explanation: NCI-60 one-dose screen, 48 h
- Experimental setup: 10 µM unless noted
Compounds without any hit were thinned out: in the full panel of roughly 83,000, 20% have a hit. Active and inactive are the calls of the source. The calls were made as follows: active = growth percent below 10; inactive = the rest.
Choose one outcome from this list and give only that: active, inactive

Query: Just curious, what result did Fc1ccc(-c2cc3nc(C(Cl)Cl)nc(-c4cccs4)n3n2)cc1 get here?
Result: inactive

Query: Record request — test call for C/C(=N\NC(=O)CSc1nc2sc3c(c2c(=O)n1-c1ccccc1)CCC(C)C3)c1ccc(Cl)cc1 (stereo not drawn)
Result: inactive

Query: Record lookup: outcome of this test for CCOc1ccc2nc(NC(=O)Nc3ccccc3C)sc2c1 ?
Result: inactive

New cases:
Query: Record lookup: outcome of this test for C/C=C/[C@@H]1C=C[C@@H]2C[C@H](C)CC[C@H]2[C@]1(C)/C(O)=C1/C(=O)[C@H](CO)N(C)C1=O ?
Result: inactive

Query: Can you look up the reported call for COC[C@]12CC[C@@H](C)[C@H](C)[C@H]1C1=CC[C@@H]3[C@@]4(C)CCCNC(C)(C)[C@@H]4CC[C@@]3(C)[C@]1(C)CC2 for me?
Result: active

Query: What did this assay record as the result for C/C(=C(/C)C1CC1CCN(C(=O)c1ccc([N+](=O)[O-])cc1)S(=O)(=O)c1ccc(C)cc1)C1CCCCC1 (stereo not drawn) ?
Result: inactive

Query: recorded result category for CC1CCc2c(sc3nc(SCC(=O)N/N=C/c4cccc(O)c4O)n(-c4ccccc4)c(=O)c23)C1 (stereo not drawn) in this test
Result: inactive

Query: For this compound, state the assay outcome: O=c1c2ccccc2nc(COc2ccccc2)n1/N=C/C=C/c1ccccc1
Result: inactive

====

This section presents compounds with their documented growth values.
- System: KM12 colon
- Assay explanation: NCI-60 one-dose screen, 48 h (100 = growth as untreated, 0 = no growth, -100 = all killed)
- Experimental setup: 10 µM unless noted
The panel holds about 83,000 compounds, 20% with a hit somewhere; the sample as a whole holds those more often.
State the answer as a number, implicitly in %.

Query: Would you kindly share the measured growth for Cc1cn(-c2cc(NC(=O)c3cncc(C#Cc4cnc5ccc(O[C@H]6CCOC6)nn45)c3)cc(C(F)(F)F)c2)cn1 ?
Result: 21.9

Query: Name the recorded growth for CCN1C(=O)N(CC)C2SC(N/N=C/C=C/c3ccccc3OC)=NC21 (centres undefined) .
Result: 11.6

Query: Value lookup for growth; key = Cc1nc(-c2cc3ccccc3c(N3CCN(C)CC3)n2)cs1
Result: 103

Here is another compound to look at.
Query: Query (compound): C=C(C)[C@@H]1CC[C@]2(C(=O)NCCCN(CCC#N)CCC#N)CC[C@]3(C)[C@H](CC[C@@H]4[C@@]5(C)CCC(=O)C(C)(C)[C@@H]5CC[C@]43C)[C@@H]12 ; field requested: growth
Result: 95.9

====

- Test system: HCC-2998 colon
- Assay explanation: NCI-60 one-dose screen, 48 h
- Experimental setup: 10 µM unless noted
The panel holds about 83,000 compounds, 20% with a hit somewhere; the sample as a whole holds those more often. The source made the active and inactive calls. The calls were made as follows: active = growth percent below 10; inactive = the rest.
A correct response names exactly one class from active, inactive

Some solved cases for reference:
Query: Kindly provide the recorded test outcome for the following compound: O=C1Nc2ccc(Br)cc2/C1=N\c1nnc(-c2ccc(Cl)cc2)o1
Result: inactive

Query: Check the results log: what was the call for O=C(Nc1cccc(Cl)c1)Nc1nc2ccc([N+](=O)[O-])cc2s1 ?
Result: active

Query: Short answer needed: outcome of this test for Nc1c(C(=O)c2ccccc2)sc2nc(-c3cnccn3)cc(-c3cccs3)c12 ?
Result: inactive

Query: # fetch the recorded call for COc1ccc(NC2=C(Cl)C(=O)C(C)=C(C)C2=O)cc1 here
Result: inactive

Turning now to a further compound:
Query: Which outcome was assigned to CCn1c2ccc(/C=N/OCCCN(C)C)cc2c2cc(/C=N/OCCCN(C)C)ccc21 in this test?
Result: active
